# assay notes: Absorbance and fluorescence of phenol-benzoate derivatives in PBS 7.4
# Format: physicochemical
# reported conditions: PBS 7.4
value kind: λ maxex [nm] (nm)
Just the number please, in nm, no unit attached.

Inquiry: Report λ maxex [nm] for COC(=O)c1ccc(/C=C/C#N)c(O)c1Cl [Benzoate 9a]
Reply text: 400

Inquiry: Consider the compound COC(=O)/C=C/c1ccc(C(=O)OC)cc1O [Benzoate 6a] . State its measured λ maxex [nm].
Reply text: 400

Inquiry: Name the recorded λ maxex [nm] of the item COC(=O)c1cccc(O)c1Cl [Benzoate 5a, reference compound] in your answer.
Reply text: 290

Further cases:
Inquiry: Quick one: give measured λ maxex [nm] for COC(=O)c1cccc(O)c1 [Benzoate 4a, reference compound]
Reply text: 290

Inquiry: Determine its reported λ maxex [nm]: COC(=O)c1ccc(/C=C/C#N)c(O)c1 [Benzoate 8a]
Reply text: 400

Inquiry: Answer with reported λ maxex [nm] of COC(=O)/C=C/c1ccc(C(=O)OC)c(Cl)c1O [Benzoate 7a]
Reply text: 400

----------
# reported λ maxem [nm]; entries follow
# assay notes: Absorbance and fluorescence of phenol-benzoate derivatives in PBS 7.4
# Type: physicochemical
# reported conditions: PBS 7.4
Respond with the bare value in nm.

In the examples that follow, each entry is paired with its recorded λ maxem [nm].
Inquiry: Tell us which λ maxem [nm] value is on record for COC(=O)c1ccc(/C=C/C#N)c(O)c1Cl [Benzoate 9a]
Reply text: 525

Inquiry: Given the compound COC(=O)c1ccc(/C=C/C#N)c(O)c1 [Benzoate 8a] , write its reported λ maxem [nm].
Reply text: 525

Inquiry: In one line, give reported λ maxem [nm] of the entry COC(=O)/C=C/c1ccc(C(=O)OC)cc1O [Benzoate 6a] .
Reply text: 550

---
Inquiry: For the compound COC(=O)c1cccc(O)c1Cl [Benzoate 5a, reference compound] , give its measured λ maxem [nm] value.
Reply text: 470

Inquiry: Look up and state reported λ maxem [nm] for COC(=O)/C=C/c1ccc(C(=O)OC)c(Cl)c1O [Benzoate 7a]
Reply text: 550

Inquiry: Item COC(=O)c1cccc(O)c1 [Benzoate 4a, reference compound] : provide λ maxem [nm]
Reply text: 470
